This collection of values is drawn from patent US20200069592A1.

Experiment: Plasma pharmacokinetics after single oral dose in ORA-Plus or SyrSpend SF (Example 6), LC-MS/MS
Format: in vivo, Sprague Dawley rats
Details: female, Sprague-Dawley, rat, plasma, po, 48 mg/kg, G10: 2HCl, 48 mg/kg single oral dose, SyrSpend, rat plasma
propertyMeasured: Tmax (h)
State the answer as a number, implicitly in h.

(Q) Please give measured Tmax of the following entry: CC(C)(C)CNCCn1c(Sc2cc3c(cc2I)OCO3)nc2c(N)ncnc21 [Compound 2 2HCl]
(A) 4

---

Test: Plasma pharmacokinetics after single oral dose in ORA-Plus or SyrSpend SF (Example 6), LC-MS/MS
Type: in vivo, Sprague Dawley rats
Conditions: female, Sprague Dawley, rat, plasma, po, 48 mg/kg, G2: free base, 48 mg/kg single oral dose, ORA-plus, rat plasma; n = 4
propertyMeasured: half-life
The reply must contain the numeric value and, after it, the unit.

(Q) Please give measured half-life of the following entry: CC(C)(C)CNCCn1c(Sc2cc3c(cc2I)OCO3)nc2c(N)ncnc21
(A) 2.61 h

---

Assay: Plasma pharmacokinetics after single PO or IV administration (Example 5), LC-MS/MS
Details: female, Sprague Dawley, rat, plasma, po, 36 mg/kg, Tmax (hr) Mean ± StdDev, Group 2: 36 mg/kg PO, ORA-Plus; free base
propertyMeasured: Tmax (h)
State the answer as a number, implicitly in h.

(Q) Please give measured Tmax of the following entry: CC(C)(C)CNCCn1c(Sc2cc3c(cc2I)OCO3)nc2c(N)ncnc21
(A) 1.5

---

Experiment: Plasma pharmacokinetics after single PO or IV administration (Example 5), LC-MS/MS
Details: female, Sprague-Dawley, rat, plasma, po, 60 mg/kg, Cmax (ng/mL) Mean ± StdDev, Group 14: 60 mg/kg PO, ORA-Plus; dosed as 2HCl
propertyMeasured: Cmax (ng/mL)
State the answer as a number, implicitly in ng/mL.

(Q) Please give measured Cmax of the following entry: CC(C)NCCCn1c(Sc2cc3c(cc2I)OCO3)nc2c(N)ncnc21
(A) 1120

---

Assay: Plasma pharmacokinetics after single oral dose in ORA-Plus or SyrSpend SF (Example 6), LC-MS/MS
Format: in vivo, Sprague Dawley rats
Conditions: female, Sprague-Dawley, rat, plasma, po, 24 mg/kg, G9: 2HCl, 24 mg/kg single oral dose, SyrSpend, rat plasma
propertyMeasured: half-life (min)
State the answer as a number, implicitly in min.

(Q) Please give measured half-life of the following entry: CC(C)(C)CNCCn1c(Sc2cc3c(cc2I)OCO3)nc2c(N)ncnc21 [Compound 2 2HCl]
(A) 205

---

Experiment: Plasma pharmacokinetics after single PO or IV administration (Example 5), LC-MS/MS
Conditions: female, Sprague Dawley, rat, plasma, po, 36 mg/kg, Cmax (ng/mL) Mean ± StdDev, Group 6: 36 mg/kg PO, 60 mM Citric acid buffer + 30% Captisol; free base
propertyMeasured: Cmax
The reply must contain the numeric value and, after it, the unit.

(Q) Please give measured Cmax of the following entry: CC(C)(C)CNCCn1c(Sc2cc3c(cc2I)OCO3)nc2c(N)ncnc21 [Compound 2]
(A) 831 ng/mL

---

Experiment: Plasma pharmacokinetics after single oral dose in ORA-Plus or SyrSpend SF (Example 6), LC-MS/MS
Type: in vivo, Sprague Dawley rats
Conditions: female, Sprague Dawley, rat, plasma, po, 48 mg/kg, G6: 2HCl, 48 mg/kg single oral dose, ORA-plus, rat plasma
propertyMeasured: Cmax
The reply must contain the numeric value and, after it, the unit.

(Q) Please give measured Cmax of the following entry: CC(C)NCCCn1c(Sc2cc3c(cc2I)OCO3)nc2c(N)ncnc21 [Compound 1 2HCl]
(A) 1120 ng/mL

---

Assay: Plasma pharmacokinetics after single oral dose in ORA-Plus or SyrSpend SF (Example 6), LC-MS/MS
Format: in vivo, Sprague Dawley rats
Conditions: female, Sprague Dawley, rat, plasma, po, 24 mg/kg, G12: 2HCl, 24 mg/kg single oral dose, SyrSpend, rat plasma; n = 1
propertyMeasured: AUC(0-inf)

(Q) Please give measured AUC(0-inf) of the following entry: CC(C)NCCCn1c(Sc2cc3c(cc2I)OCO3)nc2c(N)ncnc21 [Compound 1 2HCl]
(A) 5750 ng·h/mL

---

Test: Plasma pharmacokinetics after single oral dose in ORA-Plus or SyrSpend SF (Example 6), LC-MS/MS
Format: in vivo, Sprague Dawley rats
Details: female, Sprague Dawley, rat, plasma, po, 48 mg/kg, G10: 2HCl, 48 mg/kg single oral dose, SyrSpend, rat plasma; n = 2
propertyMeasured: AUC(0-inf) (ng·h/mL)
State the answer as a number, implicitly in ng·h/mL.

(Q) Please give measured AUC(0-inf) of the following entry: CC(C)(C)CNCCn1c(Sc2cc3c(cc2I)OCO3)nc2c(N)ncnc21 [Compound 2 2HCl]
(A) 6560

---

Test: Plasma pharmacokinetics after single oral dose in ORA-Plus or SyrSpend SF (Example 6), LC-MS/MS
Type: in vivo, Sprague Dawley rats
Conditions: female, Sprague Dawley, rat, plasma, po, 24 mg/kg, G1: free base, 24 mg/kg single oral dose, ORA-plus, rat plasma
propertyMeasured: Tmax (h)
State the answer as a number, implicitly in h.

(Q) Please give measured Tmax of the following entry: CC(C)(C)CNCCn1c(Sc2cc3c(cc2I)OCO3)nc2c(N)ncnc21
(A) 1.4

---

Assay: Solubility / compatibility testing in drinking solution vehicles and ingredients (Example 7)
Format: physicochemical
Conditions: glycerin, organic solvent or mixture; read-out: Ingredient solubility testing
propertyMeasured: solubility

(Q) Please give measured solubility of the following entry: CC(C)NCCCn1c(Sc2cc3c(cc2I)OCO3)nc2c(N)ncnc21 [Compound 1 2HCl]
(A) > 6000 µg/mL

---

Assay: Plasma pharmacokinetics after single oral dose in ORA-Plus or SyrSpend SF (Example 6), LC-MS/MS
Format: in vivo, Sprague Dawley rats
Conditions: female, Sprague-Dawley, rat, plasma, po, 24 mg/kg, G7: free base, 24 mg/kg single oral dose, SyrSpend, rat plasma
propertyMeasured: Cmax (ng/mL)
State the answer as a number, implicitly in ng/mL.

(Q) Please give measured Cmax of the following entry: CC(C)(C)CNCCn1c(Sc2cc3c(cc2I)OCO3)nc2c(N)ncnc21
(A) 371

---

Assay: Plasma pharmacokinetics after single PO or IV administration (Example 5), LC-MS/MS
Conditions: female, Sprague-Dawley, rat, plasma, po, 36 mg/kg, AUC0-last (hr*ng/mL) Mean ± StdDev, Group 12: 36 mg/kg PO, ORA-Plus; dosed as 2HCl
propertyMeasured: AUC(0-t) (ng·h/mL)
State the answer as a number, implicitly in ng·h/mL.

(Q) Please give measured AUC(0-t) of the following entry: CC(C)NCCCn1c(Sc2cc3c(cc2I)OCO3)nc2c(N)ncnc21 [Compound 1]
(A) 3220

---

Test: Plasma pharmacokinetics after single PO or IV administration (Example 5), LC-MS/MS
Conditions: female, Sprague-Dawley, rat, plasma, iv, 12 mg/kg, AUC0-last (hr*ng/mL) Mean ± StdDev, Group 9: 12 mg/kg IV, 5 mM Citric acid buffer + 15% Captisol; free base
propertyMeasured: AUC(0-t) (ng·h/mL)
State the answer as a number, implicitly in ng·h/mL.

(Q) Please give measured AUC(0-t) of the following entry: CC(C)(C)CNCCn1c(Sc2cc3c(cc2I)OCO3)nc2c(N)ncnc21
(A) 3390

---

Assay: Plasma pharmacokinetics after single oral dose in ORA-Plus or SyrSpend SF (Example 6), LC-MS/MS
Assay type: in vivo, Sprague Dawley rats
Conditions: female, Sprague Dawley, rat, plasma, po, 48 mg/kg, G13: 2HCl, 48 mg/kg single oral dose, SyrSpend; n = 2
propertyMeasured: half-life
The reply must contain the numeric value and, after it, the unit.

(Q) Please give measured half-life of the following entry: CC(C)NCCCn1c(Sc2cc3c(cc2I)OCO3)nc2c(N)ncnc21 [Compound 1 2HCl]
(A) 4.42 h

---

Experiment: Plasma pharmacokinetics after single PO or IV administration (Example 5), LC-MS/MS
Conditions: female, Sprague-Dawley, rat, plasma, iv, 12 mg/kg, Cmax (ng/mL) Mean ± StdDev, Group 18: 12 mg/kg IV, 0.9% Saline; dosed as 2HCl
propertyMeasured: Cmax (µg/mL)
State the answer as a number, implicitly in µg/mL.

(Q) Please give measured Cmax of the following entry: CC(C)NCCCn1c(Sc2cc3c(cc2I)OCO3)nc2c(N)ncnc21
(A) 1.28

---

Test: Plasma pharmacokinetics after single oral dose in ORA-Plus or SyrSpend SF (Example 6), LC-MS/MS
Type: in vivo, Sprague Dawley rats
Settings: female, Sprague Dawley, rat, plasma, po, 24 mg/kg, G5: 2HCl, 24 mg/kg single oral dose, ORA-plus, rat plasma
propertyMeasured: AUC(0-t) (ng·h/mL)
State the answer as a number, implicitly in ng·h/mL.

(Q) Please give measured AUC(0-t) of the following entry: CC(C)NCCCn1c(Sc2cc3c(cc2I)OCO3)nc2c(N)ncnc21 [Compound 1 2HCl]
(A) 4200
